Items are presented alongside their recorded Fbg.
species on record: Rattus norvegicus; assay: Open TG-GATES - Regimen: Daily Repeat; assay type: toxicity, organism-based, Sprague-Dawley; design: regimen Daily Repeat, gender Male, age 6 weeks; conditions: in vivo, po, 0 mg/kg, 72 h, tissue Blood, route gavage, dose level Control, time 3 day
Response body: numeric value in mg/dL, unit text excluded.

Past entries and their recorded results:
> print(dat)
                                   compound  number
1         O=C1NC(=O)C(c2ccccc2)(c2ccccc2)N1   301.8
2  Cc1cnc(NC(=O)C2=C(O)c3ccccc3S(=O)(=O)N2C)s1   223.6
3                Cn1c(=O)c2c(ncn2C)n(C)c1=O     311
4                                     C=CCO   221.6
5  O=C1CN(/N=C/c2ccc(-c3ccc([N+](=O)[O-])cc3)o2)C(O)=N1   224.8
6       Cc1cccc(Nc2cc(Cl)nc(SCC(=O)O)n2)c1C     285
7   Cn1cnc([N+](=O)[O-])c1Sc1ncnc2nc[nH]c12   305.2
8  CS(=O)(=O)Nc1ccc([N+](=O)[O-])cc1Oc1ccccc1 [NIMESULIDE]   199.4

Specify reported Fbg for the compound shown: COc1ccc(Cl)cc1C(=O)NCCc1ccc(S(=O)(=O)NC(=O)NC2CCCCC2)cc1 [GLYBURIDE] 225.4

Specify reported Fbg for the compound shown: O=P1(N(CCCl)CCCl)NCCCO1 (stereo unspecified) [CYCLOPHOSPHAMIDE ANHYDROUS] 293.2

Specify reported Fbg for the compound shown: COc1ccc(O)c(C(C)(C)C)c1.COc1ccc(O)cc1C(C)(C)C [BUTYLATED HYDROXYANISOLE] 265.6

Taken from ChEMBL document CHEMBL3885861.
